- measurementTarget: Beta-secretase 1 (Homo sapiens)
- testMethodNotes: Inhibition of beta-secretase 1 (BACE) was determined at the concentration of 2 uM
Starred links: 1 amine or outer side, 2 acyl side, 3 side chain; linkers in the order of their positions; H or OH if unused. Non-standard residues stand in square brackets, D forms with d. Residues, ends and D or L forms follow the SMILES beside them. β3hPhe(2R-OH) = O=C([C@H](O)[C@H](Cc1ccccc1)N[*:1])[*:2]
readoutLabel: inhibition (%)
Write the answer as a number in %, unit excluded.

-- ask Fill in: inhibition of CC(C)C[C@H](NC(=O)[C@@H](NC(=O)[C@@H](N)CCC(=O)O)C(C)C)C(=O)N[C@@H](Cc1ccccc1)[C@@H](O)C(=O)N[C@@H](C)C(=O)N[C@@H](CCC(=O)O)C(=O)N[C@@H](CCC(=O)O)C(=O)N[C@@H](Cc1ccccc1)C(=O)O (H-EVL[β3hPhe(2R-OH)]AEEF-OH) is ___
-- reply 78

-- ask What value of measured inhibition is listed for `CC(C)C[C@H](NC(=O)[C@@H](NC(=O)[C@@H](N)CCC(=O)O)C(C)C)C(=O)N[C@@H](Cc1ccccc1)[C@@H](O)C(=O)N[C@@H](CC(N)=O)C(=O)N[C@@H](C)C(=O)N[C@@H](CCC(=O)O)C(=O)N[C@@H](Cc1ccccc1)C(=O)O` ?
-- reply 54

-- ask Find the recorded inhibition belonging to `CC(C)C[C@H](NC(=O)[C@@H](NC(=O)[C@@H](N)CCC(=O)O)C(C)C)C(=O)N[C@H](Cc1ccccc1)[C@@H](O)C(=O)N[C@@H](CCC(=O)O)C(=O)N[C@@H](C)C(=O)N[C@@H](CCC(=O)O)C(=O)N[C@@H](Cc1ccccc1)C(=O)O` and report it.
-- reply 47

* * *

I'd be grateful if you could share measured inhibition for these entries.
- measurementTarget: Beta-secretase 1 (Homo sapiens, UniProt P56817)
- Sequence (P56817 whole entry): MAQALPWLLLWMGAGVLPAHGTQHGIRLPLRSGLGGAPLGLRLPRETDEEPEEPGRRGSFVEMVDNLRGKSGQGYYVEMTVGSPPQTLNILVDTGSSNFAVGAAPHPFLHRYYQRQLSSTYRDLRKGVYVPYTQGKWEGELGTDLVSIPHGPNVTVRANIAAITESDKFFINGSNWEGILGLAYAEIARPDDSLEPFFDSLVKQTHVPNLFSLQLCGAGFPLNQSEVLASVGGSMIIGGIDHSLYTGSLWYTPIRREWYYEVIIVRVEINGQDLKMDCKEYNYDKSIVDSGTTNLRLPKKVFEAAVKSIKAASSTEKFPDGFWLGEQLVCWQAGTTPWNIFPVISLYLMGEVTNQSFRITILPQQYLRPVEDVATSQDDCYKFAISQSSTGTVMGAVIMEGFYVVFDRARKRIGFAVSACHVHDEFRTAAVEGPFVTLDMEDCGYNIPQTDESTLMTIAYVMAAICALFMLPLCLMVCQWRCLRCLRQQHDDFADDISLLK
- testMethodNotes: Inhibition of beta-secretase 1 (BACE) was determined at the concentration of 2 uM
Starred links: 1 amine or outer side, 2 acyl side, 3 side chain; linkers in the order of their positions; H or OH if unused. Non-standard residues stand in square brackets, D forms with d. Residues, ends and D or L forms follow the SMILES beside them. β3hPhe(2R-OH) = O=C([C@H](O)[C@H](Cc1ccccc1)N[*:1])[*:2]
Kindly answer with a numeric value in %, unit omitted.

-- ask What measured inhibition goes with `CC(C)C[C@H](NC(=O)[C@@H](NC(=O)[C@@H](N)CCC(=O)O)C(C)C)C(=O)N[C@@H](Cc1ccccc1)[C@@H](O)C(=O)N[C@@H](CCC(=O)O)C(=O)N[C@@H](C)C(=O)N[C@@H](CCC(=O)O)C(=O)N[C@@H](Cc1ccccc1)C(=O)O` ?
-- reply 64

-- ask What value of inhibition has been recorded for this entry: CC(C)C[C@H](NC(=O)[C@@H](NC(=O)[C@@H](N)CCC(=O)O)C(C)C)C(=O)N[C@@H](Cc1ccccc1)[C@@H](O)C(=O)N[C@@H](C)C(=O)N[C@@H](Cc1ccccc1)C(=O)N[C@@H](CCC(=O)O)C(=O)N[C@@H](Cc1ccccc1)C(=O)O (H-EVL[β3hPhe(2R-OH)]AFEF-OH)
-- reply 60

-- ask I would be grateful if you could share the reported inhibition for CC(C)[C@H](NC(=O)[C@@H](N)CCC(=O)O)C(=O)N[C@@H](CC(N)=O)C(=O)N[C@@H](Cc1ccccc1)[C@@H](O)C(=O)N[C@@H](CC(=O)O)C(=O)N[C@@H](C)C(=O)N[C@@H](CCC(=O)O)C(=O)N[C@@H](Cc1ccccc1)C(=O)O (H-EVN[β3hPhe(2R-OH)]DAEF-OH) .
-- reply 24

-- ask # query: inhibition of entry CC(C)C[C@H](NC(=O)[C@@H](NC(=O)[C@@H](N)CCC(=O)O)C(C)C)C(=O)N[C@@H](Cc1ccccc1)[C@@H](O)C(=O)N[C@@H](CC(=O)O)C(=O)N[C@@H](C)C(=O)N[C@H](C(=O)N[C@@H](Cc1ccccc1)C(=O)O)C(C)C (H-EVL[β3hPhe(2R-OH)]DAVF-OH)
-- reply 57

-- ask // lookup inhibition for CC(C)C[C@H](NC(=O)[C@@H](NC(=O)[C@@H](N)CCC(=O)O)C(C)C)C(=O)N[C@H](Cc1ccccc1)[C@@H](O)C(=O)N1CSC(C)(C)C1C(=O)N[C@@H](C)C(=O)N[C@@H](CCC(=O)O)C(=O)N[C@@H](Cc1ccccc1)C(=O)O (some centres not stated)
-- reply 34

-- ask Recorded inhibition for CC(C)C[C@H](NC(=O)[C@H](C)NC(=O)[C@H](O)[C@H](Cc1ccccc1)NC(=O)[C@H](CC(C)C)NC(=O)[C@@H](NC(=O)[C@@H](N)CCC(=O)O)C(C)C)C(=O)N[C@@H](CCC(=O)O)C(=O)N[C@@H](Cc1ccccc1)C(=O)O (H-EVL[β3hPhe(2R-OH)]ALEF-OH) , please?
-- reply 41
